B1: SOAT1 (parent)
chain: PSNGRIDIKQLIAKKIKLTAEAEE

Variants of: B1
Assay: protein stability index of a GFP-peptide fusion (GPS, HEK-293T) (PSI 1-6); higher = more stable;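 also: lentivirally expressed fusions sorted by FACS into six bins by GFP to DsRed ratio, PSI derived from sequencing read proportions per bin multiplied by bin number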
Conditions: c terminus: a fixed tail appended
Label yes (1) when protein stability index is at or above 3; anything below gets no (0).

I'd appreciate it if you could say whether PPNGRIDIKQLIAKKIKLTAEAEE has protein stability index at least equal to 3.
yes (1)

Now give it for PSNGRIDIKQLIAKSIKLTAEAEE too.
yes (1)

Now give it for PSNGRIDIKQLIAKKIYLTAEAEE too.
no (0)

Now give it for PSNGRIDIKQLIAKKIKHTAEAEE too.
yes (1)

Now give it for PSNGRIDIKQLIADKIKLTAEAEE too.
yes (1)

Now give it for PSNGRIDIKQLIAKKIKLTAEAEV too.
no (0)

Now give it for PSNGRIDIKQLIAKKIKLTAELEE too.
yes (1)

Now give it for PSNGRIDIKQLIAKKIKLTAEAHE too.
no (0)

Now give it for PSNGRIDIKQLIAKQIKLTAEAEE too.
yes (1)
